# assay_procedure: C-7 plasma pharmacokinetics after single oral administration
# Type: in vivo, human
# cond: human, plasma, oral, 15 mg, Cohort III, C-7 15 mg; individual patients; read-out: AUC0-24 h
value_kind: AUC(0-t) (ng·h/mL)
# number only, unit ng·h/mL dropped from output

Using the record for CC(C)c1cc2[nH]c(=O)n(NS(C)(=O)=O)c(=O)c2cc1-c1ccnn1C , state its measured AUC(0-t).
4270

---

# Test system: mouse
# assay_procedure: Oral bioavailability: in vivo orally active (audiogenic mouse test and/or MES test)

{"columns": ["compound", "system_name", "In vivo orally active"],
 "data": [
  ["CC(OC1CCCC1)c1cc2c(=O)n(NS(C)(=O)=O)c(=O)[nH]c2cc1C(F)(F)F (stereo not shown) [Compound A-14]", "mouse", "yes"],
  ["CC(C)c1cc2[nH]c(=O)n(NS(C)(=O)=O)c(=O)c2cc1-c1ccnn1C [Compound C-7]", "mouse", "Yes"],
  ["CC(C)n1nccc1-c1cc2c(=O)n(NS(C)(=O)=O)c(=O)[nH]c2cc1CF [Compound C-3]", "mouse", "Yes"],
  ["CCc1cc2[nH]c(=O)n(NS(C)(=O)=O)c(=O)c2cc1-c1ccnn1CC [Compound C-12]", "mouse", "Yes"]
]}
